Data provenance is patent US11319324B2.

Could you please report measured IC50 for the items listed next?
Target: human P2X2/3 receptors (Homo sapiens, UniProt P56373+Q9UBL9)
Construct: expressed in transfected cells; host or cells: human astrocytoma 1321N1 (1312N1 [sic])
Sequence (P56373 1-397): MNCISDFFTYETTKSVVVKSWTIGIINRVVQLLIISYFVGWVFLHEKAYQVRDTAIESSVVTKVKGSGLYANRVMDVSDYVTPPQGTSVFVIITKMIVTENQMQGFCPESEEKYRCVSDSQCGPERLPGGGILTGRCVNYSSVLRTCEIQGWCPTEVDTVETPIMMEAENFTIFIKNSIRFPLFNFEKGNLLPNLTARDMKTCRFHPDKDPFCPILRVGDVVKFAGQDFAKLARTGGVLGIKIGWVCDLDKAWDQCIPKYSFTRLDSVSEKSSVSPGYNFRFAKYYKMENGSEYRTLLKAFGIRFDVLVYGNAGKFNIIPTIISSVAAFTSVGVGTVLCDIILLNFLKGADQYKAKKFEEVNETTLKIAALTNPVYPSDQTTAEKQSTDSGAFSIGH
Sequence (Q9UBL9 1-471): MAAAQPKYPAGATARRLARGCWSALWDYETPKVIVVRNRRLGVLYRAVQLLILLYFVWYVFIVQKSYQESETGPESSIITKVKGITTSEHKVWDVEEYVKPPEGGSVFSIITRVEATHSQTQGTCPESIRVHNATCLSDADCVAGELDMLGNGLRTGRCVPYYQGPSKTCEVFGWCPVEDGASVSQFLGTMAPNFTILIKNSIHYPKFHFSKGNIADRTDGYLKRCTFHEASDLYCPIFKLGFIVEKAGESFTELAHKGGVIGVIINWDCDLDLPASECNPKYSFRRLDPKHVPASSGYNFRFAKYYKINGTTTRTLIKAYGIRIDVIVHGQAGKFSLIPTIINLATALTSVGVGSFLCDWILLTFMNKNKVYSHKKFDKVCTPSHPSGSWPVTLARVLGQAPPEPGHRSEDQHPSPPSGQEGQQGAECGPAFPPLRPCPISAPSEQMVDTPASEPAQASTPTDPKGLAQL
Assay: Intracellular calcium measurement, antagonist activity at human P2X2/3 receptors (hP2X23 1321N1), Fluo8
Type: cell-based
Settings: column 4); 1321N1 cells, human P2X2/3, Fluo8, agonist ATP at EC50; read-out: 4) hP2X2/3 IC50 [nM] (1321N1)
One number for each entry, in nM.

Please look at CC(C)(C)c1cc2n(CC(=O)Nc3ccc(F)cn3)c3c(c(=O)n2n1)CN(CC1CCOCC1)C3=O and tell me its recorded IC50 on human P2X2/3 receptors (Homo sapiens, UniProt P56373+Q9UBL9).
12300

Provide IC50, recorded with human P2X2/3 receptors (Homo sapiens, UniProt P56373+Q9UBL9), of CC(C)N1Cc2c(n(CC(=O)Nc3ccc(F)cn3)c3cc(-c4ccc(F)cn4)nn3c2=O)C1=O
1460

Value sought for every listed molecule: IC50.
1. COC[C@H](C)N1Cc2c(n(CC(=O)Nc3ccc(F)cn3)c3cc(C(=O)N(C)Cc4cccnc4)nn3c2=O)C1=O
2. CC(C)N1Cc2c(n(CC(=O)Nc3ccc(F)cn3)c3cc(NCCOCc4ccccc4)nn3c2=O)C1=O
3. COC[C@H](C)N1Cc2c(n(CC(=O)Nc3ccc(F)cn3)c3cc(NC4CCCC4)nn3c2=O)C1=O
4. CC(C)N1Cc2c(n(CC(=O)Nc3ccc(F)cn3)c3cc(C(=O)NCC4CC4)nn3c2=O)C1=O
5. CC(C)N1Cc2c(n(CC(=O)Nc3ccc(F)cn3)c3cc(NC(=O)c4cnn[nH]4)nn3c2=O)C1=O

11500
7700
2200
2300
8200
